Quick list: Papp at 8 h per entry.
protocol_summary: in vitro
condition_details: PAMPA
Description: Effective permeability of compound incubated for 8 hrs by PAMPA
Quick note: number first, unit second.

Field: example entries. Status: answers known.
molecule=CC1(C)O[C@H]2[C@@H](O1)[C@@H](CNCCCCCCn1c(-c3ccccc3)nc(-c3ccccc3)c1-c1ccccc1)O[C@@H]1OC(C)(C)O[C@@H]12 recorded_result="0.54 ×10⁻⁶ cm/s"
molecule=CO[C@@H]1O[C@H](CNCCCCCCCn2c(-c3ccccc3)nc(-c3ccccc3)c2-c2ccccc2)[C@H]2OC(C)(C)O[C@@H]12 recorded_result="2.28 ×10⁻⁶ cm/s"
molecule="O=c1ccc2ccccc2o1 [COUMARIN]" recorded_result="26.2 ×10⁻⁶ cm/s"

Please examine the following record next.
Suppose we examine the molecule CO/N=C(\C(=O)N[C@@H]1C(=O)N2C(C(=O)O)=C(CSc3nc(=O)c(=O)[nH]n3C)CS[C@H]12)c1csc(N)n1 [CEFTRIAXONE] ; what Papp at 8 h value has been reported?
0.38 ×10⁻⁶ cm/s

The reported measurements were obtained from ChEMBL document CHEMBL4373684.
